- SYSTEM TESTED: T1, Recombinant human MASP1 enzyme (fragment corresponding to amino acids 297-699, C-terminal His Tag) (human, UniProt P48740 297-699)
- T1 sequence: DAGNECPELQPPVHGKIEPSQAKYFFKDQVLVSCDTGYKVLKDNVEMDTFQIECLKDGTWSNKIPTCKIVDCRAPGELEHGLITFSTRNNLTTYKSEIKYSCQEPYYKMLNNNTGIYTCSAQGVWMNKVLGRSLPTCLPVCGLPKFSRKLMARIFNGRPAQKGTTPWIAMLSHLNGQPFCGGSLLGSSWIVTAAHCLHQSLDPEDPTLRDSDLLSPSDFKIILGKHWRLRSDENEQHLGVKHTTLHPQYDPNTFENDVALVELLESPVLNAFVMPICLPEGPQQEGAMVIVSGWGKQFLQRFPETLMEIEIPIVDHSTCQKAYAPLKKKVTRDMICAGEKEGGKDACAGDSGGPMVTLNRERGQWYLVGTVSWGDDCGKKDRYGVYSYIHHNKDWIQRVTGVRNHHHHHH
- ASSAY COMMENT: cell-based or functional assay
Bridge positions count the residues as written; N and C are the ends. Square brackets hold non-standard residues; d marks the D form. Ends that are not written are not given here. Oic = O=C(O)[C@@H]1C[C@@H]2CCCC[C@@H]2N1; tBuAla = CC(C)(C)C[C@H](N)C(=O)O; Pen = CC(C)(S)[C@H](N)C(=O)O; NMeC = CN[C@@H](CS)C(=O)O; Sar = CNCC(=O)O
Decide by human MASP1 IC50: equal to or exceeding 7 nM means fulfilled, less means not fulfilled.

INPUT: Please check the record GICSRS[tBuAla]P[Oic]I[NMeC]IPD-NH2 (disulfide 3-11; N-terminus assumed; SMILES CC[C@H](C)[C@H](NC(=O)CN)C(=O)N[C@H]1CSSC[C@@H](C(=O)N[C@H](C(=O)N2CCC[C@H]2C(=O)N[C@@H](CC(=O)O)C(N)=O)[C@@H](C)CC)N(C)C(=O)[C@H]([C@@H](C)CC)NC(=O)[C@@H]2C[C@@H]3CCCC[C@@H]3N2C(=O)[C@@H]2CCCN2C(=O)[C@H](CC(C)(C)C)NC(=O)[C@H](CO)NC(=O)[C@H](CCCNC(=N)N)NC(=O)[C@H](CO)NC1=O) [GIC+SRS-((tBu)A)-P-(Oic)-I-((N-Me)C)+IPD-NH2] and state if its human MASP1 IC50 is at or above 7 nM.
OUTPUT: not fulfilled

INPUT: Item: FICSRS[tBuAla]PPI[NMeC]I-NH2 (disulfide 3-11; N-terminus assumed; SMILES CC[C@H](C)[C@H](NC(=O)[C@@H]1CSSC[C@H](NC(=O)[C@@H](NC(=O)[C@@H](N)Cc2ccccc2)[C@@H](C)CC)C(=O)N[C@@H](CO)C(=O)N[C@@H](CCCNC(=N)N)C(=O)N[C@@H](CO)C(=O)N[C@@H](CC(C)(C)C)C(=O)N2CCC[C@H]2C(=O)N2CCC[C@H]2C(=O)N[C@@H]([C@@H](C)CC)C(=O)N1C)C(N)=O) [FIC+SRS-((tBu)A)-PPI-((N-Me)C)+I-NH2]
OUTPUT: not fulfilled

INPUT: Item: [Sar]ICSRSLP[Oic]I[Pen]IP-NH2 (disulfide 3-11; also: acetate salt) [((N-Me)G)-IC+SRSLP-(Oic)-I-(Pen)+IP-NH2 (Acetate)]
OUTPUT: not fulfilled

INPUT: Item: [2‑(Morpholine)acetyl]ICSRS[tBuAla]PPI[Pen]IPD-NH2 (disulfide 3-11) [(2-(Morpholine)acetyl)-IC+SRS-((tBu)A)-PPI-(Pen)+IPD-NH2]
OUTPUT: fulfilled

meta.source: patent US20210246166A1
